Reported Ki for target or system Carbonic anhydrase 1 (Homo sapiens), by entry.
Respond with the bare value in µM.

compound smiles: NS(=O)(=O)c1ccc(-c2cn([C@@H]3O[C@H](CO)[C@H](O)[C@H](O)[C@H]3O)nn2)cc1
measured: 7.95
--
compound smiles: CC(C)CC(=O)OC[C@H]1O[C@@H](n2cc(-c3ccc(S(N)(=O)=O)cc3)nn2)[C@H](OC(=O)CC(C)C)[C@@H](OC(=O)CC(C)C)[C@@H]1OC(=O)CC(C)C
measured: 9.44

Problem: Give its Ki value. Item: CC(C)CC(=O)OC[C@H]1O[C@@H](n2cc(-c3ccc(S(N)(=O)=O)cc3)nn2)[C@H](OC(=O)CC(C)C)[C@@H](OC(=O)CC(C)C)[C@H]1OC(=O)CC(C)C
Solution: 3.21

* * *

Lab note: Ki readings collected with Carbonic anhydrase 1 (Homo sapiens, UniProt P00915) for the following molecules.
Sequence (P00915 whole entry): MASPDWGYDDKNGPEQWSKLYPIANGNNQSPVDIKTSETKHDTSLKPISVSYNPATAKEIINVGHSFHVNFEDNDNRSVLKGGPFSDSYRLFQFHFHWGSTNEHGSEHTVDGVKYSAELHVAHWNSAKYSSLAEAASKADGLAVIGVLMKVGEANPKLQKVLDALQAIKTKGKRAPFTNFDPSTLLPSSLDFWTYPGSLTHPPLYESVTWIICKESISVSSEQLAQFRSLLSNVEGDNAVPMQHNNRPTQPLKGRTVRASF
Numbers only; they are read as µM.

Use these answered entries as a reference point.
compound smiles: CCCC(=O)OC[C@H]1O[C@@H](n2cc(-c3ccc(S(N)(=O)=O)cc3)nn2)[C@H](OC(=O)CCC)[C@@H](OC(=O)CCC)[C@@H]1OC(=O)CCC
Ki [µM]: 1.8

compound smiles: CCCCC(=O)OC[C@H]1O[C@@H](n2cc(-c3ccc(S(N)(=O)=O)cc3)nn2)[C@H](OC(=O)CCCC)[C@@H](OC(=O)CCCC)[C@H]1OC(=O)CCCC
Ki [µM]: 2.13

Problem: Look up Ki with Carbonic anhydrase 1 (Homo sapiens, UniProt P00915) for this molecule: CCCC(=O)OC[C@H]1O[C@@H](n2cc(-c3ccc(S(N)(=O)=O)cc3)nn2)[C@H](OC(=O)CCC)[C@@H](OC(=O)CCC)[C@H]1OC(=O)CCC
Solution: 0.257

* * *

Endpoint: log10 Ki. System: Carbonic anhydrase 14 (Homo sapiens, UniProt Q9ULX7). Items follow.
Sequence (Q9ULX7 whole entry): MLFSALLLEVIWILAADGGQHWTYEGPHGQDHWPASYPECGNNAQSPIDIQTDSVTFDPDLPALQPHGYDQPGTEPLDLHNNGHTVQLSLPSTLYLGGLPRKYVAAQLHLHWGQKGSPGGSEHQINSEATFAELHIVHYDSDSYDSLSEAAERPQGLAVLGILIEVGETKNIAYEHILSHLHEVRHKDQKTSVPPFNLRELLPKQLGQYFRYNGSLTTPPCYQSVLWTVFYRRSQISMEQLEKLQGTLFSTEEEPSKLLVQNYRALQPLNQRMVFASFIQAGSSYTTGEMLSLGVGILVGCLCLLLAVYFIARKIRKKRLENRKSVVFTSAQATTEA
Quick note: numbers are log10 of Ki, with nM as the unit.

Field: example entries. Status: answers known.
compound smiles: CCC(=O)OC[C@H]1O[C@@H](n2cc(-c3ccc(S(N)(=O)=O)cc3)nn2)[C@H](OC(=O)CC)[C@@H](OC(=O)CC)[C@@H]1OC(=O)CC
tested system: Carbonic anhydrase 14 (Homo sapiens, UniProt Q9ULX7)
measured: 2.41
//
compound smiles: CC(C)CC(=O)OC[C@H]1O[C@@H](n2cc(-c3ccc(S(N)(=O)=O)cc3)nn2)[C@H](OC(=O)CC(C)C)[C@@H](OC(=O)CC(C)C)[C@@H]1OC(=O)CC(C)C
tested system: Carbonic anhydrase 14 (Homo sapiens, UniProt Q9ULX7)
measured: 1.60

Please examine the following record next.
Problem: Kindly state the measured log10 Ki obtained for CCCC(=O)OC[C@H]1O[C@@H](n2cc(-c3ccc(S(N)(=O)=O)cc3)nn2)[C@H](OC(=O)CCC)[C@@H](OC(=O)CCC)[C@@H]1OC(=O)CCC with Carbonic anhydrase 14 (Homo sapiens, UniProt Q9ULX7).
Solution: 2.08

* * *

- assay details: Degradation half life in human plasma at 5000 ng/mL by UPLC-MS analysis
- Assay type: ADME, cell-free
// values below are reported half-life at 5000 ng/mL

Example results:
compound smiles: CCCCC(=O)OC[C@H]1O[C@@H](n2cc(-c3ccc(S(N)(=O)=O)cc3)nn2)[C@H](OC(=O)CCCC)[C@@H](OC(=O)CCCC)[C@@H]1OC(=O)CCCC
half-life at 5000 ng/mL: > 4.17 h
--
compound smiles: NS(=O)(=O)c1ccc(-c2cn([C@@H]3O[C@H](CO)[C@@H](O)[C@H](O)[C@H]3O)nn2)cc1
half-life at 5000 ng/mL: > 4.17 h

Turning now to a further record.
Problem: Entry CC(C)CC(=O)OC[C@H]1O[C@@H](n2cc(-c3ccc(S(N)(=O)=O)cc3)nn2)[C@H](OC(=O)CC(C)C)[C@@H](OC(=O)CC(C)C)[C@@H]1OC(=O)CC(C)C : reported half-life at 5000 ng/mL = ?
Solution: > 4.17 h

* * *

- tested system: Carbonic anhydrase 14 (Homo sapiens, UniProt Q9ULX7)
Catalogue of pKi readings, one per entry.
pKi here is simply -log10 of the concentration when that concentration is written in mol/L.

Problem: Record request: pKi value, item CCCC(=O)OC[C@H]1O[C@@H](n2cc(-c3ccc(S(N)(=O)=O)cc3)nn2)[C@H](OC(=O)CCC)[C@@H](OC(=O)CCC)[C@H]1OC(=O)CCC
Solution: 7.45

Problem: Try this compound next: CC(=O)OC[C@H]1O[C@@H](n2cc(-c3ccc(S(N)(=O)=O)cc3)nn2)[C@H](OC(C)=O)[C@@H](OC(C)=O)[C@H]1OC(C)=O
Solution: 7.80

Problem: Proceed to NS(=O)(=O)c1ccc(-c2cn([C@@H]3O[C@H](CO)[C@H](O)[C@H](O)[C@H]3O)nn2)cc1
Solution: 7.70
